Experiment: yeast display, Sf9 membrane polyspecificity reagent, FACS + sequencing; frameworks hold sequencing errors
endpoint-name: polyreactivity (PSR sort gate)

INSERT INTO assay_data (sequence_string, endpoint_name, value_reported) VALUES
  ('QVQLVESGGGLVQAGGSLRLSCAASGRTFTSYGMGWYRPEPGKERELVAAITRSTGGTYYADSVKGRFTISRDHAKNTVYLQMNSLKPEDTAVYYCNTGPLYSPFDYWGQGTQVTVSS', 'polyreactivity (PSR sort gate)', 'low polyreactivity'),
  ('QVQLVESGGGLVQAGGSLRLSCAASGIIFSYYAMGWYIQAPGKERELVAVINSGGSTYYADSVKGRFTISRDNAKNTVYLQMNSLKPEDTAVYYCAATIFVKFYYWGQGTQVTVSS', 'polyreactivity (PSR sort gate)', 'low polyreactivity');

----------
Test: yeast display, Sf9 membrane polyspecificity reagent, FACS + sequencing; frameworks hold sequencing errors
endpoint-name: polyreactivity (PSR sort gate)

Some solved cases for reference:
INSERT INTO measurements (sequence_string, value_reported) VALUES
  ('QVQLVESGGGLVQARASLRLSCAASGNTIGYYAMGWYRQAHGKERELVAAISKRGGSTRYADSVKGRFTISRDNAKNTVYLQMNSLKPEDTAVYYCNAEGFGSLRYSYCNSFDYWGQGTQVTVSS', 'high polyreactivity'),
  ('QVQLVESGGGLLQAGGSLRLSCAASGRTFGFYTMGWYRQAPGKERELVAGISRGGSTTYADSVKGRFTISRDNAKKTVYVEMNSLKQEDTAVYYSNADRSHYWLPYGVRFDYWGLGTQVTVSS', 'low polyreactivity'),
  ('QVQLVESGGGLVQAGGSLRLSCAASGRIFRHNTMGWYLQAPGKERELVAAIRYSGGRTYYADSVKGRFTLSRDTAKNTFYLQMNSLKPEDTAVYYCAATYFAAVYSSWYWFDYWGQGTQVTVSS', 'high polyreactivity'),
  ('QVQLQESGGGLVQAGGSLRLSCAASGIIFDNPNMGWYRQAPGKQRELVATINSGATTNYADSVKGRFTISRDNAKNTVYLLMNSLIPEDTAVYYCAVDLSPTYFYYWGQGTQVTVSS', 'high polyreactivity'),
  ('QVQLVETAGGLVQARGSLRLSCAASGFIFRYNAMGWYRQERGKERELVAAINYRGGSTYYADSVKGRFTISRDNAKNTVYLQMNSLKPEDTAVYYCAVLTYRGRFEYWGQGTQVTVSS', 'high polyreactivity'),
  ('QVQLVESGGGLVQAGGSLRLSCAASGRTFYSNAMGWYRQAPGKERELVAAIRQSGGSTYYADSVKGRFTISRDNEKNSVYLQMNSLTPEDTAVYYCATGRHDSYKGSLYYYWGQGTQVTVSS', 'high polyreactivity');

Each sequence below has a recorded value; state its polyreactivity (PSR sort gate).
1. QVQLVESGGGLVHAGGSLRLSCPASGRIFPHYAMGWYRQAPGKEREMVAAISGRGGNTYYADSVKGRFTISRDNAKNTVYLQMNSLKPEDTAVYYCAADVSWRPSWGYDYWGQGTQVTVSS
2. QVQLVESGGGLVQAGGSLRLSCAASGSTFLYNALGWYRPAPGKEREFVAAISGSGGTTYYADSVKGRFTISRDNAKNTVYLQMNSLKPEDTAVYYCAVSQSWYWYYASDYWGQGTQVTVSS
3. QVQLVESGGGLVQAGGSLRLSCAASGSILYPYAMGWYRQAPGKERELVAAIRSRGGSTYYADSVKGRFTISRDNAKNTGYLQMNSLKPEDTAVYYCAAGSTRARFDYWGQGTQVTVSS
4. QVQLVESGGGLVQAGRSLPLSCAASGRTFRPNAMGWYRQAPGKERELVAVSSWRGGRTYYADSVKGRFTISRDNAKNTVYLQMNSLKPEDTAVYYCAAGPTSRRWYDYWGQGTQVTVSS
5. QVQLVESGGGLVQAGGSLRLSCAASAIIFRFYAMGWYRQAPGKERELVPAISSGGSTYYADSVKGRFTISRDNAKNTVYLQMNSLKPEDTAVYYCNARVRYKRTGRYGYWGQGTQVTVSS

["high polyreactivity", "low polyreactivity", "high polyreactivity", "high polyreactivity", "high polyreactivity"]
